The entries below come with measured Kv7.2 max values attached.
assay-target: human Kv7.2 (Homo sapiens (Human))
method: SyncroPatch 384 electrophysiology, activation of Kv7.2 in CHO cells
Type: cell-based
run-conditions: Kv7.2 activation max %, relative to 30 μM ML-213 max activation
# unit: % | format: bare number

QUERY: If you can, please state the reported Kv7.2 max value of `O=C(NC12CC(C1)C2)NC1(c2cccc(C(F)(F)F)c2)CC1` .
RESULT: 82

QUERY: What do we get for `O=C(NCc1cccc(OCF)c1)NC12CC(C(F)(F)F)(C1)C2` ?
RESULT: 56

Attention now turns to another entry.
QUERY: If you can, please state the reported Kv7.2 max value of `O=C(NCc1cccc(C(F)F)c1)NC12CC(C(F)(F)F)(C1)C2` .
RESULT: 60
